- Test system: C33A
- testName: Primary qHTS to identify gynecologic anti-cancer compounds using libraries of approved drugs and bioactive compounds (AID 1345084); also: nearly all actives have a fitted effect of over 55% in size
- measurementParameters: Gynecologic cancer cell panel viability, ATPlite luminescence, 48 h; series mostly up to 57.5 µM
Results filed as inconclusive are left out. Active and inactive are the calls of the source. Calls follow the shape of the dose curve; as a rule, active = well fitted cell-killing curve with a large enough effect; inconclusive = small, poorly fitted or top-dose-only effect, or effect the other way; inactive = flat fitted curve, though single readings scatter.
valueKind: outcome

C[C@H]1C(=O)O[C@H]2[C@H](O)[C@]34C5OC(=O)[C@]3(O[C@@H]3OC(=O)[C@H](O)C34[C@H](C(C)(C)C)[C@H]5O)C12O (stereo partly drawn)	inactive
COC1CC(=O)C23C(=O)NC(CC(C)C)C2C(C)=C(C)C(OO)C3/C=C(\C)CCC(O)C1O (stereo not drawn)	inactive
C1=C2CCCN[C@H]2[C@@H]2C[C@H]1[C@H]1CCCCN1C2	inactive
